Quick reference for pKi among some compounds
molecular target: UniProt:P42336; experiment: p110α (alpha) PI3K Binding Assay (ADP-Glo lipid kinase reaction); assay type: biochemical; conditions: PI3K alpha 0.2 nM, ATP 40 μM, PIP2:3PS 50 μM, 120 min, room temperature; Ki by Morrison Equation; read-out: PI3Kα-(alpha) ATP (Ki) micromolar
To interpret pKi, take it as minus log10 of a concentration measured in moles per litre.

Study these solved cases before continuing.
CCc1cc(-c2nc3cc(N4CCC[C@H]4C(N)=O)cc4c3n2CCCO4)cc2nc(N)oc12 = 8.79
C[C@H](Nc1cc2c3c(c1)nc(-c1ccccc1)n3CCCO2)C(N)=O = 6.89
NC(=O)[C@@H](C1CC1)n1cc(-c2cc3c4c(c2)nc(-c2ccc5oc(N)nc5c2)n4CCCO3)cn1 (single isomer, unassigned) = 9.36
CS(=O)(=O)c1ccc(-c2nc3cc(N[C@H](C(N)=O)C4CC4)cc4c3n2CCCO4)cc1 = 6.04
NC(=O)[C@@H](Nc1cc2c3c(c1)nc(-c1ccnc4[nH]cnc14)n3CCCO2)C1CC1 = 6.49

Ask: Reported pKi for "NC(=O)[C@@H](Nc1cc2c3c(c1)nc(-c1ccnc4[nH]ncc14)n3CCCO2)C1CC1" : what is it?
Reply: 8.41

Ask: Okay, and "NC(=O)[C@@H]1CCCN1c1cc2c3c(c1)nc(-c1ccc4c(c1)N1CCC(=O)N=C1O4)n3CCCO2" ?
Reply: 8.53

---

target: PI3Kα (alpha) (Homo sapiens (Human)); assay: p110α (alpha) PI3K Binding Assay (ADP-Glo lipid kinase reaction); format: biochemical; conditions: PI3K alpha 0.2 nM, ATP 40 μM, PIP2:3PS 50 μM, 120 min, room temperature; Ki by Morrison Equation; read-out: PI3Kα-(alpha) ATP (Ki) micromolar
Sequence (P42336 whole entry): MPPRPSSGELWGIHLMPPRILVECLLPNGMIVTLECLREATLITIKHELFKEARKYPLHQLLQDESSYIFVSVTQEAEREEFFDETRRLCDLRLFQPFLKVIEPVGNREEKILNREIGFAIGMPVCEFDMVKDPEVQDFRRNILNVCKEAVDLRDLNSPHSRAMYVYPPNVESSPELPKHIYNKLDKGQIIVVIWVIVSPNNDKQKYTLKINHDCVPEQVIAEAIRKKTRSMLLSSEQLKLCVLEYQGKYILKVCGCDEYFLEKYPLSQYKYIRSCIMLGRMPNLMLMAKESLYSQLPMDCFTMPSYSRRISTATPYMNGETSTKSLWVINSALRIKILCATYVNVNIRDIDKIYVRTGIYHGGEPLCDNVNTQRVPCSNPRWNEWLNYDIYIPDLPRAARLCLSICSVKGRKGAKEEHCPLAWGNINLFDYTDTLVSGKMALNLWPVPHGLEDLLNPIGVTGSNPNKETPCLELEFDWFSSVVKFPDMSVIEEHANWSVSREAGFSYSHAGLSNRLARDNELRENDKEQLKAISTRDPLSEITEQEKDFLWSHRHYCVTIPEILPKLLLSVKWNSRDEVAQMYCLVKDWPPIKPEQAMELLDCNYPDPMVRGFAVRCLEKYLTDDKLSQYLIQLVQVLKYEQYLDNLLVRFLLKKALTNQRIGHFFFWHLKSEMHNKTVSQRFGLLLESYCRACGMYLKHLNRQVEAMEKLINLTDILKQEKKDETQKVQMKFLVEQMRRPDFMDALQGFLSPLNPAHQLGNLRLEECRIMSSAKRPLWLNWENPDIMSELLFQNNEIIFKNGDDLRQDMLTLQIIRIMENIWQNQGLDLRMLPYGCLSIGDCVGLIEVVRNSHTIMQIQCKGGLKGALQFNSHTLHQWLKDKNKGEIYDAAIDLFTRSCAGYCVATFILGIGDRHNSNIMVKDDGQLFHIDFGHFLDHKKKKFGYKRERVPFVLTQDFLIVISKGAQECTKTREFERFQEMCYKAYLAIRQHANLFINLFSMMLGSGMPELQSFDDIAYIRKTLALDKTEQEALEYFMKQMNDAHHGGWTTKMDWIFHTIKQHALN
Sequence (P27986 whole entry partner): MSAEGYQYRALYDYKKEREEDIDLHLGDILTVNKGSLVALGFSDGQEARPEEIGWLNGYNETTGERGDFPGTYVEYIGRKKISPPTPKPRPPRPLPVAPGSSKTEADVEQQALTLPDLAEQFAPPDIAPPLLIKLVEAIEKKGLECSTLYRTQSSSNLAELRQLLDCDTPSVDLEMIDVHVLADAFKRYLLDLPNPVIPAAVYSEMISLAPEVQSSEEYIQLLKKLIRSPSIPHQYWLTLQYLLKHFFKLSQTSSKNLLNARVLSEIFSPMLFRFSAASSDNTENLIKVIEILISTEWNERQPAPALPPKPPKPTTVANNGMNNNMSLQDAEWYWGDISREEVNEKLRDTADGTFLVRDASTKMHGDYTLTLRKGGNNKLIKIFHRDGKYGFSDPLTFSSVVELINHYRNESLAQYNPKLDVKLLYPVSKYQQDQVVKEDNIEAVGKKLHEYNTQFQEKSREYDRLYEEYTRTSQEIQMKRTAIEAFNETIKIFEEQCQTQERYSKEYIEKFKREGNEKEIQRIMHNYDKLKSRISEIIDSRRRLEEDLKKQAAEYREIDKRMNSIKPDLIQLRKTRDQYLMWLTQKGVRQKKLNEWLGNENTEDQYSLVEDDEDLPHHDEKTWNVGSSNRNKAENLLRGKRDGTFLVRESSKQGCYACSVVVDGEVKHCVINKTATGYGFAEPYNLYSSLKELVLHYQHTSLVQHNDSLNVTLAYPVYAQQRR
Quick reference for pKi among some molecules
To interpret pKi, take it as minus log10 of a concentration measured in moles per litre.

Study these solved cases before continuing.
NC(=O)[C@@H](Nc1cc2c3c(c1)nc(N1CCCOCC1)n3CCCO2)C1CC1 = 6.18
NC(=O)[C@@H](Nc1cc2c3c(c1)nc(-c1cnc4c(c1)OCCO4)n3CCCO2)C1CC1 = 7.23
NC(=O)[C@@H](Nc1cc2c3c(c1)nc(-c1ccc4ncsc4c1)n3CCCO2)C1CC1 = 7.49

Next molecule, please.
Ask: Param readout= pKi; system= PI3Kα (alpha) (Homo sapiens (Human)); entry= "NC(=O)[C@@H](Nc1cc2c3c(c1)nc(N1CCCCC1)n3CCCO2)C1CC1" ; returns value.
Reply: 6.14

---

biological target: PI3Kα (alpha) (Homo sapiens (Human)); assay: p110α (alpha) PI3K Binding Assay (ADP-Glo lipid kinase reaction); type: biochemical; conditions: read-out: PI3Kα-(alpha) ATP (Ki) micromolar
Quick reference for Ki among some compounds

Study these solved cases before continuing.
CC[C@H](C(N)=O)n1cc(-c2cc3c4c(c2)nc(-c2ccc5oc(N)nc5n2)n4CCCO3)cn1 (single isomer, unassigned) [Example 312] = 0.039 nM
C[C@H]1CCN(c2cc3c4c(c2)nc(-c2ccc5oc(N)nc5c2)n4CCCO3)[C@@H]1C(N)=O [Example 308] = 0.627 nM
CC[C@@H](C(N)=O)n1cc(-c2cc3c4c(c2)nc(-c2ccc5oc(N)nc5n2)n4CCCO3)cn1 (single isomer, unassigned) [Example 311] = 0.031 nM
NC(=O)[C@@H]1CCCN1c1cc2c3c(nc(-c4ccc5oc(N)nc5c4)n3CCCCO2)c1F [Example 247] = 0.024 nM

Next compound, please.
Ask: Param readout= Ki; system= PI3Kα (alpha) (Homo sapiens (Human)); entry= Nc1nc2cc(-c3nc4cc(Br)cc5c4n3CCCCO5)ccc2o1 [Example 172] ; returns value.
Reply: 0.501 nM

---

biological target: UniProt:P42336; test: p110α (alpha) PI3K Binding Assay (ADP-Glo lipid kinase reaction); format: biochemical; settings: PI3K alpha 0.2 nM, ATP 40 μM, PIP2:3PS 50 μM, 120 min, room temperature; Ki by Morrison Equation; read-out: PI3Kα-(alpha) ATP (Ki) micromolar
measured-metric: pKi
To interpret pKi, take it as minus log10 of a concentration measured in moles per litre.

Study these solved cases before continuing.
NC(=O)[C@@H]1CCCN1c1cc2c3c(c1)nc(-c1ccc4c(=O)[nH]oc4c1)n3CCCO2 [Example 237] = 6.86
COc1ccc(-c2nc3cc(N[C@H](C(N)=O)C4CC4)cc4c3n2CCCO4)cc1OC(F)F [Example 163] = 7.47
Nc1nc2cc(-c3nc4cc(Br)cc5c4n3CCCO5)ccc2o1 [Example 101] = 8.11

Next compound, please.
Ask: Reported pKi for CC[C@H](Oc1cc2c3c(c1)nc(-c1cc(F)c(-c4ncn[nH]4)cc1F)n3CCCCO2)C(N)=O [Example 295] : what is it?
Reply: 10.28

---

molecular target: PI3Kα (alpha) (Homo sapiens (Human)); assay: p110α (alpha) PI3K Binding Assay (ADP-Glo lipid kinase reaction); assay type: biochemical; details: PI3K alpha 0.2 nM, ATP 40 μM, PIP2:3PS 50 μM, 120 min, room temperature; Ki by Morrison Equation; read-out: PI3Kα-(alpha) ATP (Ki) micromolar
Quick reference for Ki among some molecules
Enter your answer as a number in nM; do not include the unit.

NC(=O)[C@@H]1CCCN1c1cc2c3c(c1)nc(-c1ccc(-c4nc[nH]n4)cc1)n3CCCO2 [Example 221] = 0.237
NC(=O)[C@@H](Nc1cc2c3c(c1)nc(-c1cnn(CCO)c1)n3CCCO2)C1CC1 [Example 211] = 815

Next molecule, please.
Ask: Reported Ki for C[C@H](Oc1cc2c3c(c1)nc(-c1cc(F)c4sc(N)nc4c1)n3CCCCO2)C(N)=O [Example 285] : what is it?
Reply: 0.062

---

target: PI3Kα (alpha) (Homo sapiens (Human)); assay: p110α (alpha) PI3K Binding Assay (ADP-Glo lipid kinase reaction); assay type: biochemical; conditions: PI3K alpha 0.2 nM, ATP 40 μM, PIP2:3PS 50 μM, 120 min, room temperature; Ki by Morrison Equation; read-out: PI3Kα-(alpha) ATP (Ki) micromolar
Quick reference for pKi among some compounds
To interpret pKi, take it as minus log10 of a concentration measured in moles per litre.

COc1cnc2cc(-c3nc4cc(N[C@H](C(N)=O)C5CC5)cc5c4n3CCCO5)ccc2n1 = 7.33

Ask: Param readout= pKi; system= PI3Kα (alpha) (Homo sapiens (Human)); entry= "C[C@@H]1Cn2c(-c3ccc4oc(N)nc4c3)nc3cc(O[C@H](C)C(N)=O)cc(c32)O1" ; returns value.
Reply: 8.64

Ask: Okay, and "NC(=O)[C@@H](Nc1cc2c3c(c1)nc(N1CCc4nccnc4C1)n3CCCO2)C1CC1" ?
Reply: 6.81

Ask: Okay, and "Cn1nc(-c2nc3cc(N[C@H](C(N)=O)C4CC4)cc4c3n2CCCO4)ccc1=O" ?
Reply: 6.59

Ask: Okay, and "COc1ncc(-c2nc3cc(N[C@H](C(N)=O)C4CC4)cc4c3n2CCCO4)cc1Cl" ?
Reply: 8.12

Ask: Okay, and "NC(=O)c1ccc(-c2nc3cc(N[C@H](C(N)=O)C4CC4)cc4c3n2CCCO4)cn1" ?
Reply: 6.98

---

target: UniProt P42336; assay: p110α (alpha) PI3K Binding Assay (ADP-Glo lipid kinase reaction); type: biochemical; details: PI3K alpha 0.2 nM, ATP 40 μM, PIP2:3PS 50 μM, 120 min, room temperature; Ki by Morrison Equation; read-out: PI3Kα-(alpha) ATP (Ki) micromolar
measured-metric: Ki (nM)
Enter your answer as a number in nM; do not include the unit.

Study these solved cases before continuing.
NC(=O)[C@@H](Nc1cc2c3c(c1)nc(-c1ccc4c(c1)NC(=O)CO4)n3CCCO2)C1CC1 = 821
C[C@H](C(N)=O)n1cc(-c2cc3c4c(c2)nc(-c2ccc5oc(N)nc5c2)n4CCCO3)cn1 = 0.143

Ask: Param readout= Ki; system= UniProt P42336; entry= "CS(=O)(=O)c1cc(-c2nc3cc(N[C@H](C(N)=O)C4CC4)cc4c3n2CCCO4)ccn1" ; returns value.
Reply: 87.2

---

Quick reference for pKi among some compounds
Target: PI3Kα (alpha) (Homo sapiens (Human))
Assay: p110α (alpha) PI3K Binding Assay (ADP-Glo lipid kinase reaction)
Format: biochemical
Conditions: PI3K alpha 0.2 nM, ATP 40 μM, PIP2:3PS 50 μM, 120 min, room temperature; Ki by Morrison Equation; read-out: PI3Kα-(alpha) ATP (Ki) micromolar
Description: The ability of a compound of the invention to act as an inhibitor of PI3Kα was determined using the methods of Example 901. PI3K Binding assays are intended for determining the biochemical potency of small molecule PI3K inhibitors. […] Following the termination if the kinase reaction, turnover of ATP to ADP by the phosphorylation of the lipid substrate is detected using the Promega ADP-Glo™ (Promega #V1792) assay. […]
To interpret pKi, take it as minus log10 of a concentration measured in moles per litre.

NC(=O)[C@@H]1CCCN1c1cc2c3c(c1)nc(-c1ccc4[nH]cnc4c1)n3CCCO2 [Example 199] = 7.48
NC(=O)[C@@H]1CCCN1c1cc2c3c(nc(-c4ccc5oc(N)nc5c4)n3CCCO2)c1F [Example 194] = 10.59
NC(=O)[C@@H]1CCCN1c1cc2c3c(c1)nc(-c1ccc(-c4cc[nH]n4)cc1)n3CCCO2 [Example 229] = 8.16
NC(=O)[C@@H](Nc1cc2c3c(c1)nc(-c1cc(C(F)(F)F)c4oc(N)nc4c1)n3CCCO2)C1CC1 [Example 235] = 9.68
NC(=O)[C@@H](Nc1cc2c3c(c1)nc(-c1ccn4ncnc4c1)n3CCCO2)C1CC1 [Example 132] = 8.80

Ask: Reported pKi for COc1ccc(-c2nc3cc(N[C@@H](C)C(N)=O)cc4c3n2CCCO4)cn1 [Example 111] : what is it?
Reply: 7.94

Ask: Okay, and NC(=O)[C@@H](Nc1cc2c3c(c1)nc(-c1ccn4nccc4n1)n3CCCO2)C1CC1 [Example 228] ?
Reply: 8.58
